Data provenance is ChEMBL document CHEMBL2150971.

Test system: Cellular tumor antigen p53 (Homo sapiens), P04637 [G245C]
Assay Text: Induction of conformational changes in p53 G245C mutant in human NCI-H596 cells at 60 uM incubated for 1 hr at 32 degC by tryptophan fluorescence emission spectroscopy
Assay type: cell-based
Active and inactive are the calls of the source. No cut-off for these calls is given here.
Can you answer with just one of these options? 1 = active, 0 = inactive

These solved cases illustrate the format of a correct answer.
Compound	Qualitative Label
C[C@@H](N=C=S)c1ccccc1	1
S=C=NCc1ccccc1	1
C[S+]([O-])CCCCN=C=S (centres undefined)	0

Challenge: Check the results log: what was the call for S=C=NCc1ccc(Oc2ccccc2)cc1 ?
Response given: 1
